Cited source: patent CN115181181A

Target: T1, 人源重组CD25蛋白 (human IL-2RA) (human, UniProt P01589 22-240)
T1 construct: extracellular domain; also called CD25重组蛋白; 人源重组胞外结构域蛋白
T1 sequence (looked up): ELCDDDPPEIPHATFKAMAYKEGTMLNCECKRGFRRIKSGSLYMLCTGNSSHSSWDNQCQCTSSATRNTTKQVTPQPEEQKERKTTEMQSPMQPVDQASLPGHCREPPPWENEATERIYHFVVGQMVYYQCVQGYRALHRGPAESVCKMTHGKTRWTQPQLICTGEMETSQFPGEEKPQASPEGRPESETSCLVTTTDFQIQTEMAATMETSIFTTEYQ
Assay: screening ELISA: crude VHH extract on coated CD25, anti-HA-HRP detection; positive if OD450 is over 5 times the control
Experimental endpoint: binding result

[[record]]
binder = "单域抗体1B5 (原核粗提VHH) (VHH, also called VHH2; not shown: tags from the pMECS vector (detected with anti-HA antibody)) VHH: ESGGGSVQAGGSLRLSCAASGYTYSSNCMGWFRQAPGKEREGVAAIDTGGGYTYYADSVEGRFTISQDKAKNTVYLQMNSLKPEDTAMYYCAADTGRCFPHVPYEVDFGYWGQGTQVTVSS"
result = "binds"

[[record]]
binder = "单域抗体1H1 (原核粗提VHH) (VHH, also called VHH4; not shown: tags from the pMECS vector (detected with anti-HA antibody)) VHH: ESGGGSVQAGGSLRLSCAASGYTSRRNCMGWFRQAPGKEREGVAAINTAGGHTYYADSVEGRFTISQDNARNTVYLQMNSLKPEDTGMYYCAAETGSYCYAHVPESADFGYWGQGTQVTVSS"
result = "binds"

[[record]]
binder = "单域抗体4D9 (原核粗提VHH) (VHH, also called VHH10; not shown: tags from the pMECS vector (detected with anti-HA antibody)) VHH: ESGGGSVQAGGSLRLSCAASGYPYRRNCMGWFRQAPGKEREGVAAIDSAGTTTYADSVKGRFTISKDDAKNTLYLQMNSLKPEDTAMYYCALNAPTWECRAGGAPAFAYSGQGTQVTVSS"
result = "binds"

